Reference for the values: patent US11028075B2

# IC50 per record follows
Target: UniProtKB Q15858
Sequence (Q15858 other isoform, or with tags, fused parts or gaps): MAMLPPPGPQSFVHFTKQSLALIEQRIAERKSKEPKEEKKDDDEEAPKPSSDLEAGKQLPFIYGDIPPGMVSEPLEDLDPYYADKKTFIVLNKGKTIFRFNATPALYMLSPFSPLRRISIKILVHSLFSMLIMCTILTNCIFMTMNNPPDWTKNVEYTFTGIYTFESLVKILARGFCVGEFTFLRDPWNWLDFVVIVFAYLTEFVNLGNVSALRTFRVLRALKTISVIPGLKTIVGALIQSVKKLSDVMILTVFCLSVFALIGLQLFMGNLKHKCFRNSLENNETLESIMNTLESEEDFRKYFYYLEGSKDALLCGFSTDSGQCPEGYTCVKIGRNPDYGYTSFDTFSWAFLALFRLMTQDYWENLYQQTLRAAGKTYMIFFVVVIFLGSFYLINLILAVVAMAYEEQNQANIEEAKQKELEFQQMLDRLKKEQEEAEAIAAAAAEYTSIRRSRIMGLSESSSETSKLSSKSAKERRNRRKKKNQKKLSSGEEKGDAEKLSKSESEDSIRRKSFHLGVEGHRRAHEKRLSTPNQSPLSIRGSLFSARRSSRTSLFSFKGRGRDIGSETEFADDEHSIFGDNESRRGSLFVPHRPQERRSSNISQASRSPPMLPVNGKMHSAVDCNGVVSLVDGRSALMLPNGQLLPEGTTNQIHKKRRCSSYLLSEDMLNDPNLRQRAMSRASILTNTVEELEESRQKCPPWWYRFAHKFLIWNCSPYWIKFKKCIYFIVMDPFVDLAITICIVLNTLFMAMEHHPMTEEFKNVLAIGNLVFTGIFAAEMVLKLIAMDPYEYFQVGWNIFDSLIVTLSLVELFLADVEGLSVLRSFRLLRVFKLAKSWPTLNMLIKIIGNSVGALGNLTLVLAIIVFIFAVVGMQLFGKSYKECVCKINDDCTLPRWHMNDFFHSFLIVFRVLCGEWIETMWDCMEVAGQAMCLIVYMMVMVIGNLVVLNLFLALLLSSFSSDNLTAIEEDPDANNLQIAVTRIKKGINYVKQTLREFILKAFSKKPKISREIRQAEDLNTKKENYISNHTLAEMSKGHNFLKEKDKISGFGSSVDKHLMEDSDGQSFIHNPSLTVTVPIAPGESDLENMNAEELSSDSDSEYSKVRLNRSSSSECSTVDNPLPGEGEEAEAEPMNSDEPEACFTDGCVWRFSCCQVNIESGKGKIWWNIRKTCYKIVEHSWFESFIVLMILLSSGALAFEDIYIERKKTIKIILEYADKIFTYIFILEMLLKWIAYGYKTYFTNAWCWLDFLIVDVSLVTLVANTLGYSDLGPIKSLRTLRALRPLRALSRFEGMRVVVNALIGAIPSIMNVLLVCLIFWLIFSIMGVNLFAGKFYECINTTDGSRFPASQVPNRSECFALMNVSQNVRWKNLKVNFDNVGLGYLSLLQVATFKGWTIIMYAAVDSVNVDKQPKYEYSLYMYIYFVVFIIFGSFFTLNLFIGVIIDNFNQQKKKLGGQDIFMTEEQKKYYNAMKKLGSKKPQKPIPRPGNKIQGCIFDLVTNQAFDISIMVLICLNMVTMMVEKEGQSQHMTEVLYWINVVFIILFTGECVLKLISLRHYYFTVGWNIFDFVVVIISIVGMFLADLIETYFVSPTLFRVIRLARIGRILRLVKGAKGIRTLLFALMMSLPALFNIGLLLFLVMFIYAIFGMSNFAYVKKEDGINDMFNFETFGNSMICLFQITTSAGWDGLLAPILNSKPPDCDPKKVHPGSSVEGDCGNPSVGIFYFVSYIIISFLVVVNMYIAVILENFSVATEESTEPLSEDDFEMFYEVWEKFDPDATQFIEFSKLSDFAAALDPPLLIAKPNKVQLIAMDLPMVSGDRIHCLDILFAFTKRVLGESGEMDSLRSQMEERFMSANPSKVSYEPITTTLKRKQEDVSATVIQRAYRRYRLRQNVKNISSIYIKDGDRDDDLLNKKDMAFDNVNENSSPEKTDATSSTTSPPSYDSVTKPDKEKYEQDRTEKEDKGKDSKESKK
Experiment: Electrophysiological assay (EP), voltage clamp on Syncropatch 384PE, CHO cells stably expressing Nav1.7
Assay type: cell-based
Conditions: holding potential −50 mV, 7.5 min compound incubation, read-out: EP_SP hNav1.7 EVO IC50
Counter-ions that a name gives are not always drawn.

| compound | IC50 / nM |
| --- | --- |
| CC(C)[C@H](N)C(=O)N[C@H]1C[C@@H](c2cccc(C(F)(F)F)c2)CC[C@@H]1Nc1cc(F)c(S(=O)(=O)Nc2ccncn2)cc1Cl [Example 30, formate] | 28.4 |
| CN(C)[C@H]1C[C@@H](c2cccc(C(F)(F)F)c2)CC[C@@H]1Oc1ccc(S(=O)(=O)Nc2ccncn2)cc1F | 18 |
| CN(C)[C@H]1C[C@@H](c2ccc(F)c(C(F)(F)F)c2)CC[C@@H]1Nc1cc(F)c(S(=O)(=O)Nc2ccncn2)cc1Cl | 0.765 |
| O=CO.[2H]C([2H])([2H])N([C@H]1C[C@@H](c2cccc(C(F)(F)F)c2)CC[C@@H]1Nc1cc(F)c(S(=O)(=O)Nc2ccncn2)cc1Cl)C([2H])([2H])[2H] | 0.694 |
| CN(C)[C@H]1C[C@@H](c2cccc(C3CCOCC3)c2)CC[C@@H]1Oc1cc(F)c(S(=O)(=O)Nc2ccncn2)cc1Cl | 6.36 |
| CN(C)[C@H]1C[C@@H](c2ccc(Cl)c(Cl)c2)CC[C@@H]1Oc1cc(F)c(S(=O)(=O)Nc2ccncn2)cc1Cl [Example 67, formate] | 0.325 |
| CN(C)[C@H]1C[C@@H](c2cccc(C3COC3)c2)CC[C@@H]1Nc1cc(F)c(S(=O)(=O)Nc2ccncn2)cc1Cl | 9.11 |
| CN(C)[C@H]1C[C@@H](c2cccc(C(F)(F)F)c2)CC[C@@H]1Oc1cc(F)c(S(=O)(=O)Nc2ccncn2)cc1F [Example 48, formate] | 3.34 |
| CN(C)[C@H]1C[C@@H](c2cccc(-n3cccn3)c2)CC[C@@H]1Nc1cc(F)c(S(=O)(=O)Nc2ccncn2)cc1Cl [Example 20, formate] | 7.38 |
| CN(C)[C@H]1C[C@@H](c2cccc(C(F)(F)F)c2)CC[C@@H]1Oc1ccc(S(=O)(=O)Nc2ccncn2)c(F)c1 [Example 57, formate] | 2.59 |
| CN(C)[C@H]1CN(c2cc(C(F)(F)F)ccn2)CC[C@@H]1Nc1ccc(S(=O)(=O)Nc2ccncn2)c(F)c1 [Example 72, formate] | 23.1 |
| CN(C)[C@H]1C[C@@H](c2cc(Cl)cc(C(F)(F)F)c2)CC[C@@H]1Nc1cc(F)c(S(=O)(=O)Nc2ccncn2)cc1Cl | 0.383 |
| CN(C)[C@H]1C[C@@H](c2cccc(CC(F)(F)F)c2)CC[C@@H]1Nc1cc(F)c(S(=O)(=O)Nc2ccncn2)cc1Cl | 1.33 |
| O=S(=O)(Nc1ccncn1)c1cc(F)c(N[C@H]2CC[C@H](c3cc(F)cc(C(F)(F)F)c3)C[C@@H]2N2CCCC2)cc1F [Example 85, formate] | 0.494 |
| CN(C)[C@@H]1C[C@@](O)(c2cccc(C(F)(F)F)c2)CC[C@H]1Nc1cc(F)c(S(=O)(=O)Nc2ccncn2)cc1Cl (single isomer, unassigned) [Example 38, formate] | 9440 |
| CN(C)[C@H]1C[C@@H](c2cc(F)cc(Cl)c2)CC[C@@H]1Nc1cc(F)c(S(=O)(=O)Nc2ccncn2)cc1Cl | 2.31 |
| O=S(=O)(Nc1ccncn1)c1cc(Cl)c(O[C@H]2CC[C@H](c3cccc(OC(F)(F)F)c3)C[C@@H]2N2CCCC2)cc1F [Example 64, formate] | 0.554 |
| CN(C)[C@@H]1C[C@H](c2ccccc2C(F)(F)F)CC[C@H]1Nc1cc(F)c(S(=O)(=O)Nc2ccncn2)cc1Cl (single isomer, unassigned) | 1.37 |
| CN(C)[C@H]1C[C@@H](c2cccc(C(F)(F)F)c2Cl)CC[C@@H]1Oc1cc(F)c(S(=O)(=O)Nc2ccncn2)cc1Cl | 3.99 |
| CN(C)[C@H]1C[C@@H](c2cccc(C(F)(F)F)c2)CC[C@@H]1N(C)c1cc(F)c(S(=O)(=O)Nc2ccncn2)cc1Cl [Example 51, formate] | 4.65 |
| CN(C)[C@H]1C[C@@H](c2cccc(OC3CC3)c2)CC[C@@H]1Nc1cc(F)c(S(=O)(=O)Nc2ccncn2)cc1Cl | 1.12 |
| CN(C)CC(=O)N[C@H]1C[C@@H](c2cccc(C(F)(F)F)c2)CC[C@@H]1Nc1cc(F)c(S(=O)(=O)Nc2ccncn2)cc1Cl | 36.3 |
| CN1CC(N(C)[C@H]2C[C@@H](c3cccc(C(F)(F)F)c3)CC[C@@H]2Nc2cc(F)c(S(=O)(=O)Nc3ccncn3)cc2Cl)C1 | 0.241 |
| CN(C)[C@H]1C[C@@H](c2cccc(OC(F)F)c2)CC[C@@H]1Nc1cc(F)c(S(=O)(=O)Nc2ccncn2)cc1Cl | 1.63 |
